Origin of measurements: the supplement of paper PMC8671470

Test system: HL-60
protocol summary: cell viability (% survival relative to DMSO control); higher = less cytotoxic
experimental parameters: 0.1 µM; 72 h; co-treatment: DMSO vehicle
cell viability listing for selected compounds.

{"compound": "O[C@H]1[C@H](O)[C@@H](O)CN2CC[C@H](O)[C@H]12 [Castanospermine]", "cell viability [%]": 96.8}
{"compound": "N=C(N)c1ccc(N=NNc2ccc(C(=N)N)cc2)cc1 [Diminazene]", "cell viability [%]": 99.7}
{"compound": "CN1CC(=O)N2[C@H](c3ccc4c(c3)OCO4)c3[nH]c4ccccc4c3C[C@@H]2C1=O [Tadalafil]", "cell viability [%]": 98}
{"compound": "O=c1[nH]c(=O)n([C@H]2C[C@H](O)[C@@H](CO)O2)cc1I [Idoxuridine]", "cell viability [%]": 99.7}
{"compound": "O=C(c1c2ccccc2cc2ccccc12)N1CCC(N2CCC[C@@H](C(=O)N3CCOCC3)C2)CC1", "cell viability [%]": 106}
{"compound": "OCCN(CCO)c1nc(N2CCCCC2)c2nc(N(CCO)CCO)nc(N3CCCCC3)c2n1 [Dipyridamole]", "cell viability [%]": 107}
{"compound": "Cn1cc(C[C@@H](N)C(=O)O)c2ccccc21 [Indoximod]", "cell viability [%]": 112}
